B1: Pistol ribozyme (parent)
chain: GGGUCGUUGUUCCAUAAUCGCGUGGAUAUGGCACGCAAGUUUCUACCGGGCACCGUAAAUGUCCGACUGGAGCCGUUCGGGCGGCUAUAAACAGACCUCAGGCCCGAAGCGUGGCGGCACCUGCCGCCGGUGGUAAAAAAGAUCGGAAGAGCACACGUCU

- Variants of: B1
- measurement notes: aptazyme ON/OFF ratio, guanine; higher = stronger switching; co-transcriptional cleavage with and without guanine
Entries and their aptazyme ON/OFF ratio

See these solved cases before continuing.
{"variant key": "U7G U8A U10C C12G C13A", "aptazyme ON/OFF ratio": 1.39}
{"variant key": "U7G U8C G9A U11A C12A C13A", "aptazyme ON/OFF ratio": 1.08}
{"variant key": "U7C G9U U10G U11C C13U", "aptazyme ON/OFF ratio": 1.07}
{"variant key": "U7G U8G G9C U11A C12U C13U", "aptazyme ON/OFF ratio": 1.26}
{"variant key": "U7A U8G G9C U10G U11A C13G", "aptazyme ON/OFF ratio": 1.25}
{"variant key": "U7A U8G U10A C12A", "aptazyme ON/OFF ratio": 1.23}
{"variant key": "U7C U8G G9A U10G U11C C12A C13G", "aptazyme ON/OFF ratio": 1.1}
{"variant key": "U7C U8C G9U U11G C12A C13A", "aptazyme ON/OFF ratio": 1.19}
{"variant key": "U7A G9C U10G U11A", "aptazyme ON/OFF ratio": 1.03}
{"variant key": "U7G U8A G9U U10G U11C C12G C13A", "aptazyme ON/OFF ratio": 1.09}

I have this variant here, U7A U8A G9A C12A C13U , and I need its recorded aptazyme ON/OFF ratio.
1.07

I have this variant here, U7A U8C G9C U10C C13U , and I need its recorded aptazyme ON/OFF ratio.
1.06

I have this variant here, U7G U8G G9C U10A U11A C13G , and I need its recorded aptazyme ON/OFF ratio.
1.02

I have this variant here, U8G G9A U10C C13U , and I need its recorded aptazyme ON/OFF ratio.
1.07

I have this variant here, U7G U8G U10A U11A C12A , and I need its recorded aptazyme ON/OFF ratio.
1.13

I have this variant here, U7C U8C G9A U10A U11A C12G C13G , and I need its recorded aptazyme ON/OFF ratio.
1.12

I have this variant here, U7G G9U U10G U11C C12G , and I need its recorded aptazyme ON/OFF ratio.
1.48

I have this variant here, U7A U11G C13U , and I need its recorded aptazyme ON/OFF ratio.
1.04

I have this variant here, U7A U8C G9A U10C U11A C12A C13G , and I need its recorded aptazyme ON/OFF ratio.
1.1

I have this variant here, U7G U8A U10A U11A C12G , and I need its recorded aptazyme ON/OFF ratio.
1.14

I have this variant here, U8A G9C C12A C13G , and I need its recorded aptazyme ON/OFF ratio.
1.17

I have this variant here, U7A U8A G9C U10C C12G C13A , and I need its recorded aptazyme ON/OFF ratio.
0.99
